Listing: Binding response of selected binders
# measuredOn: T1, human LAP-TGFB1 Fc fusion (human)
# T1 construct: also called human LAP-TGFβ1-Fc; human LAP-TGFβ-Fc isoform 1
# assayOverview: BLI off-rate screen
Give a bare numeral; the unit nm is implied.

The examples below pair each entry with its known result.
binder="VL T30E (36BIT) (Fab, V domains shown, Heavy chain: parental 20E6 Fab HC, implied) VH: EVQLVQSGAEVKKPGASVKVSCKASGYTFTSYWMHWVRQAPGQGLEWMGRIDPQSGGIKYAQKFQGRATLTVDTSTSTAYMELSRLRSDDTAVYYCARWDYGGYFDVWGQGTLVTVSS VL: DIQMTQSPSSLSASVGDRVTITCRASQDIENYLNWYQQKPGKAVKLLIYYTSRLHSGVPSRFSGSGSGTDYTLTISSLQPEDFATYFCQQGDTLPWTFGQGTKLEIKR" parameter="Binding response" measurementunit=nm recordednumber=0.439
binder="VH H35K (30BIT) (Fab, V domains shown, Light chain: parental 20E6 LC, implied) VH: EVQLVQSGAEVKKPGASVKVSCKASGYTFTSYWMKWVRQAPGQGLEWMGRIDPQSGGIKYAQKFQGRATLTVDTSTSTAYMELSRLRSDDTAVYYCARWDYGGYFDVWGQGTLVTVSS VL: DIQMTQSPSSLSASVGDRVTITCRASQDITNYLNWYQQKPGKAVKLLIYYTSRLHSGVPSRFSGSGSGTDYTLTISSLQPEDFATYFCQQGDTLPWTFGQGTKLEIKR" parameter="Binding response" measurementunit=nm recordednumber=0.115

*Q* Which Binding response is listed for VL R53E (31BIT) (Fab, V domains shown, Heavy chain: parental 20E6 Fab HC, implied) VH: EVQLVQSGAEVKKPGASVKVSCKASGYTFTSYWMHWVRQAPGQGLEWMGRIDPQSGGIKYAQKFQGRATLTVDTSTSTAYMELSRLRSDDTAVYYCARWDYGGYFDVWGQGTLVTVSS VL: DIQMTQSPSSLSASVGDRVTITCRASQDITNYLNWYQQKPGKAVKLLIYYTSELHSGVPSRFSGSGSGTDYTLTISSLQPEDFATYFCQQGDTLPWTFGQGTKLEIKR ?
*A* 0.664
